The reported numbers originate from paper PMC11054528.

Can you tell me CHIIAM for the items I'm about to list?
- experimental.protocol: IAM-HPLC, immobilized artificial membrane chromatography (affinity to phospholipids)
- Type: physicochemical
- Set-up: scale not given here
- setup.conditions: IAM.PC.DD2 column, pH 7.4

Worked cases, answers included:
[[record]]
smiles_string = "O=C1c2ccccc2S(=O)(=O)N1CCCCCN1CCN(c2ccccc2)CC1"
assay_metric = "CHIIAM"
test_value = 39.09

[[record]]
smiles_string = "O=C1c2ccccc2S(=O)(=O)N1CCCCCN1CCN(c2ccc(Cl)cc2)CC1"
assay_metric = "CHIIAM"
test_value = 44.30

[[record]]
smiles_string = "COc1ccc(N2CCN(CCCCCCN3C(=O)c4ccccc4S3(=O)=O)CC2)cc1"
assay_metric = "CHIIAM"
test_value = 40.04

[[record]]
smiles_string = "O=C1c2ccccc2S(=O)(=O)N1CCCCCCN1CCN(c2nsc3ccccc23)CC1"
assay_metric = "CHIIAM"
test_value = 45.78

[[record]]
smiles_string = "O=C1c2ccccc2S(=O)(=O)N1CCCCCCN1CCN(c2ccccc2)CC1"
assay_metric = "CHIIAM"
test_value = 41.59

[[record]]
smiles_string = "O=C1c2ccccc2S(=O)(=O)N1CCCCCCN1CCN(c2ccccn2)CC1"
assay_metric = "CHIIAM"
test_value = 38.48

[[record]]
smiles_string = "O=C1c2ccccc2S(=O)(=O)N1CCCCCCN1CCN(c2cccc3ccccc23)CC1"
assay_metric = "CHIIAM"
test_value = 48.85

[[record]]
smiles_string = "O=C1c2ccccc2S(=O)(=O)N1CCCCCCN1CCN(c2cccc(C(F)(F)F)c2)CC1"
assay_metric = "CHIIAM"
test_value = 46.84


// for each compound in input: emit CHIIAM
1. O=C1c2ccccc2S(=O)(=O)N1CCCCCN1CCN(c2cccc(Cl)c2Cl)CC1
2. COc1cccc(N2CCN(CCCCCCN3C(=O)c4ccccc4S3(=O)=O)CC2)c1

Reply |
1. 48.28
2. 41.42

// for each compound in input: emit CHIIAM
1. O=C1c2ccccc2S(=O)(=O)N1CCCCCCN1CCN(c2ccc(Cl)c(Cl)c2)CC1
2. COc1ccccc1N1CCN(CCCCN2C(=O)c3ccccc3S2(=O)=O)CC1

Reply |
50.19
46.90

// for each compound in input: emit CHIIAM
1. O=C1c2ccccc2S(=O)(=O)N1CCCCCN1CCN(c2cccc3ccccc23)CC1
2. O=C1c2ccccc2S(=O)(=O)N1CCCCCCN1CCN(c2cccc(Cl)c2)CC1
3. O=C1c2ccccc2S(=O)(=O)N1CCCCCCN1CCN(c2ccc(Cl)cc2)CC1
4. COc1ccccc1N1CCN(CCCCCCN2C(=O)c3ccccc3S2(=O)=O)CC1
5. O=C1c2ccccc2S(=O)(=O)N1CCCCN1CCN(c2cccc(Cl)c2Cl)CC1
6. O=C1c2ccccc2S(=O)(=O)N1CCCCCCN1CCN(c2ccccc2F)CC1
7. O=C1c2ccccc2S(=O)(=O)N1CCCCN1CCN(c2ccc(Cl)cc2)CC1

Reply |
1. 47.26
2. 46.73
3. 46.32
4. 40.54
5. 35.71
6. 42.69
7. 42.61
